- TARGET ENTITY: RpHpsP (S-DHPS dehydrogenase HpsP, SPO0596) (Ruegeria pomeroyi, UniProt Q5LVU9)
- Sequence (Q5LVU9 1-332): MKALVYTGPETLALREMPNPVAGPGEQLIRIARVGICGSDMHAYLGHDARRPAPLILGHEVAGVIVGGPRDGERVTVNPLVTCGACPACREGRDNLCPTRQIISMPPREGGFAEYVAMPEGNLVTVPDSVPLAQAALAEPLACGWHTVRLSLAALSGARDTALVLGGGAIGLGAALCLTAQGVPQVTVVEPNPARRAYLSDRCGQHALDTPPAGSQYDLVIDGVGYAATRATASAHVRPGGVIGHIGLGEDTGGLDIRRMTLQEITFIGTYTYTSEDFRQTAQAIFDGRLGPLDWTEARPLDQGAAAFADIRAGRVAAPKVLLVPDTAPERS
OUTCOME MEASURE: pKd
Recall that pKd is obtained by taking minus log10 of the concentration measured in molar.

What value of measured pKd is listed for `O=S(=O)(O)C[C@@H](O)CO` ? 3.13

====

- TARGET ENTITY: UniProt:Q5LVV1
- Sequence (Q5LVV1 1-435): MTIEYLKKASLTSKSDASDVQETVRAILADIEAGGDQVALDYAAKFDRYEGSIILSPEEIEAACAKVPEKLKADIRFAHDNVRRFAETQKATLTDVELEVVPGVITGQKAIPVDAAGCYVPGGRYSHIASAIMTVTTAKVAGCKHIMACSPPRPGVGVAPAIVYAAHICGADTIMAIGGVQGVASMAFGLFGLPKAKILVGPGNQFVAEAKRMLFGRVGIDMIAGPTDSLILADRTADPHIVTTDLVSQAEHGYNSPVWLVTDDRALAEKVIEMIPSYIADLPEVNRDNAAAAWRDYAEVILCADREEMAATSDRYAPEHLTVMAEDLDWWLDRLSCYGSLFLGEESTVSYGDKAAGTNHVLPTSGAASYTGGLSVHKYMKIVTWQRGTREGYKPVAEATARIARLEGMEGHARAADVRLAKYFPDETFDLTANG
OUTCOME MEASURE: Kd
Quote the value and follow it with the unit of measurement.

What value of measured Kd is listed for O=S(=O)(O)C[C@H](O)CO [R-DHPS] ? 860 µM

====

- TARGET ENTITY: RpHpsO (R-DHPS dehydrogenase HpsO, SPO0595) (Ruegeria pomeroyi, UniProt Q5LVV0)
- Sequence (Q5LVV0 1-253): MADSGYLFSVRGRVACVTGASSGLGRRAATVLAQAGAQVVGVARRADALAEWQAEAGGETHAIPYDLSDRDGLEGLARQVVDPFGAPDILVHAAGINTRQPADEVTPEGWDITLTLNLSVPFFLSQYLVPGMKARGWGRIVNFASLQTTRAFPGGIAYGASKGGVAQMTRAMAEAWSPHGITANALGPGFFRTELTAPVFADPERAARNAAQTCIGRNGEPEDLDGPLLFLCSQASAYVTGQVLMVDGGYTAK
- EXPERIMENT DESCRIPTION: SPR (Biacore T200, CM5 chip); also NADH formation assay, Km […]
- Assay type: binding
OUTCOME MEASURE: Kd (µM)
State the answer as a number, implicitly in µM.

What value of measured Kd is listed for `O=S(=O)(O)C[C@H](O)CO` ? 330
